Measured protein stability index accompanies every entry in the list below.
B1: WDFY1 (parent)
chain: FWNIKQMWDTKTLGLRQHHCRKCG

Variants of: B1
assay_summary: protein stability index of a GFP-peptide fusion (GPS, HEK-293T) (PSI 1-6); higher = more stable;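 further: lentivirally expressed fusions sorted by FACS into six bins by GFP to DsRed ratio, PSI derived from sequencing read proportions per bin multiplied by bin number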
protocol_conditions: c terminus: a fixed tail appended
// no unit, no text: just the number

// worked examples, protein stability index included
mutant | protein stability index
M7E | 2.48
K11R | 1.27
I4R | 1.45
H18W | 2.06
G24F | 1.96

input: Which protein stability index value belongs to D9H ?
output: 2.05
